Tested on: T-47D breast
test.method.notes: NCI tumour cell line growth inhibition, 48 h
observable: GI50

| structure.notation | observed.value |
| --- | --- |
| COC(=O)c1c(-c2ccccc2)csc1NC(=O)c1c(-c2ccccc2)noc1C | 3.41 µM |
| CO/N=C1/c2cc(OC)ccc2-c2c(NOC)nc3ccccc3c21 | 41.2 µM |
| O=C(Nc1ccccc1Cl)c1ccc(NC2=C(Cl)C(=O)N(Cc3ccccc3)C2=O)cc1 | 62.4 µM |
| CNCCNc1nc2ccccc2c2c(=O)c3cccc(OC)c3sc12 | 1.57 µM |
| Cc1ccc(/C=C(\C#N)n2nnc3cc(F)c(F)cc32)cc1 | 1.19 µM |
| O=Nc1c(-c2cccc([N+](=O)[O-])c2)nc2ncccn12 | 6.29 µM |
